# Tested on: SF-539 CNS
# Experiment: NCI tumour cell line growth inhibition, 48 h
Exercise: for every item that follows, state its recorded TGI.

Reference set, count: 2
Cc1nc(N)sc1C(=O)Nc1ncn[nH]1
> 100 µM
O=C(O)CN1CCCC(Cc2c[nH]c3ccccc23)C1 (stereo not drawn)
> 100 µM

// below: TGI requested for another compound
Data request: What value of TGI has been recorded for this entry: CO[C@H]1CC[C@]2(C)C3=CC[C@@]4(C)C(CC[C@@H]4C(C)CC[C@@H](C)C(C)C)C(=CCC2C1)O3 (stereo partly drawn)
Data returned: > 25 µM

----------
# Test system: KM12 colon
# Experiment: NCI tumour cell line growth inhibition, 48 h
Readout label: TGI

Answered examples (2):
COC(NC(N)=O)C(=O)O (stereo not drawn)
> 100 µM
NCCOCn1cc(Cc2cccc(OCc3ccccc3)c2)c(=O)[nH]c1=O
> 100 µM

Next item in the queue.
Data request: Data request, read-out TGI, for O=C1OCC(c2ccc(O)cc2)=C1c1cc(O)c(O)c(O)c1
Data returned: > 100 µM

----------
# Tested on: NCI-H23 lung
# Experiment: NCI tumour cell line growth inhibition, 48 h
Readout label: TGI (µM)
One number for each entry, in µM.

Example cases with answers are listed next.
CCOC(=O)CCC(NC(=O)c1ccc(Nc2nc3cc(C(F)(F)F)ccc3nc2C(=O)OCC)cc1)C(=O)OCC (stereo not given)
39.9
CC(CN(C)C)S(=O)(=O)c1ccc(-c2cnc(N)c(C(=O)Nc3ccccc3)n2)cc1 (stereo not given)
24.7
COc1cccc(Sc2ccc([N+](=O)[O-])c3no[n+]([O-])c23)c1
25

Field: TGI. Fill in for each record below.
1. O=C1NCN(c2ccccc2)C12CCN(CCCC(c1ccc(F)cc1)c1ccc(F)cc1)CC2
2. CCCCCCCN(CCCCCCC)C(=N)c1ccnc2ccccc12
3. COC1=CC(=O)C(Br)=CC1=O

Data returned:
1. 15.2
2. 3.08
3. 40.8

Hey, quick one: what's TGI for each of these?
1. C=C(C)[C@@H]1C/C=C(/CO)CC[C@H]2O[C@]2(C)CC/C=C(\C)CC1
2. COc1cccc(OC(=O)c2ccc(C(F)(F)F)nc2Nc2c(C)cccc2Cl)c1
3. CC(C)NCC(O)c1ccc(O)c2ncccc12 (stereo not given)

Data returned:
1. 66.9
2. 19
3. 78.7

# batch size: 7; output TGI per entry
1. COc1ccc(C(C#N)=C2C=CC(=NO)C=C2)cc1
2. COc1ccc(C(=O)c2c(-c3ccccc3NC(=O)C(F)(F)F)[nH]c3ccccc23)cc1
3. COc1cc(NS(C)(=O)=O)ccc1NCc1cnc2ccc3[nH]cccc3c12
4. COc1cc(S(=O)(=O)Nc2ccc(-c3csc(N4C(=O)C(Cl)C4c4cccc(Oc5ccccc5)c4)n3)cc2)ccc1Cl (stereo not given)
5. CCNC(=O)NNc1ncnc2c1c(-c1ccc(Cl)cc1)cn2-c1ccc(C)cc1
6. Oc1cc(O)c2c(c1)O[C@H](c1cc(O)c(O)c(O)c1)[C@@H](O)C2
7. CC/C=C\C[C@H](O)C/C=C1/C(=O)C=C[C@@H]1C/C=C\CCCC(=O)OC(C)C

Data returned:
1. 26.3
2. 25.7
3. 55
4. 36.9
5. 44.8
6. 58.2
7. 4.37

----------
# Test system: NCI-H522 lung
# Experiment: NCI tumour cell line growth inhibition, 48 h
*1 amine or outer side, *2 acyl side, *3 side chain or, on linkers, in order; H or OH if unused. Where a SMILES comes first, the peptide text is derived from it. Bridges are numbered along the chain shown (N, C = ends). Roman numbers before positions name the chains, in order. [ ]: non-standard residue; d: D form. Actinocin(9to1) = Cc1c2oc3c(C)ccc(C(=O)[*:1])c3nc-2c(C(=O)[*:2])c(N)c1=O; NMeV = CN[CH](C(=O)O)C(C)C; Sar = CNCC(=O)O
Readout label: TGI

CCn1c(-c2ccc(OC)cc2)nc2c1C(=O)c1ccccc1C2=O
> 100 µM
Nc1ncnc2c1sc(=S)n2-c1ccccc1
> 100 µM
CC1(C)OC2CC3COC(=O)C3CC2O1 (centres undefined)
> 100 µM
CO[C@H]1CC[C@]2(C)C3=CC[C@@]4(C)C(CC[C@@H]4C(C)CC[C@@H](C)C(C)C)C(=CCC2C1)O3 (some centres undefined)
> 25 µM
CCCN(CCC)CCc1cc(C(C)=O)n(S(=O)(=O)c2ccc(C)cc2)c1
> 100 µM

Give measured TGI for every item shown.
1. Cc1cc(Br)cc(C)c1NC(=O)C(=O)C(C(=O)c1ccncc1)C1OC(=O)c2ccccc21 (centres undefined)
2. COc1ccc(OC)c(NC(=O)c2cccc(NC3=C(Cl)C(=O)N(Cc4ccccc4)C3=O)c2)c1
3. CC(=O)OC12CC(C(F)(F)F)(C(F)(F)F)OC1(OC(C)=O)CC(C(F)(F)F)(C(F)(F)F)O2 (centres undefined)
4. O=C1/C(=C/c2ccc(F)c(F)c2)CN(C(=O)C(Cl)Cl)C/C1=C\c1ccc(F)c(F)c1
5. C[N+](C)=c1ccc2nc3c(ccc4ccccc43)oc-2c1
6. Cc1c(OCCCOc2ccc3c(=O)cc(-c4ccccc4)oc3c2C)ccc2c(=O)cc(-c3ccccc3)oc12
7. Nc1ncn(C2OC(COP(=O)(O)O)C(O)C2O)c(=O)n1 (centres undefined)
8. NC(=S)Nc1ccc2c(c1)oc1ccccc12

Data returned:
1. > 100 µM
2. > 100 µM
3. > 100 µM
4. 0.503 µM
5. 8.07 µM
6. > 100 µM
7. > 100 µM
8. > 100 µM

Batch of 4 compounds: report TGI for each.
1. Cc1c(-c2coc(-c3ccccc3)n2)c(=O)n(-c2ccccc2)n1C
2. O=c1/c(=C/c2c(O)ccc3ccccc23)sc2nc3ccccc3n12
3. Cc1c2oc3c(C)ccc(C(=O)OC(C)C4NC(=O)C(C(C)C)N(C)C(=O)CN(C)C(=O)C5CCCN5C(=O)C(C(C)C)NC4=O)c3nc-2c(C(=O)OC(C)C2NC(=O)C(C(C)C)N(C)C(=O)CN(C)C(=O)C3CCCN3C(=O)C(C(C)C)NC2=O)c(N)c1=O (centres undefined) (I: cyclo([Sar][NMeV]TVP) / II: cyclo([Sar][NMeV]TVP); linker I:3-II:3 via Actinocin(9to1); configuration not given here)
4. c1ccc2cc(Cn3cc[n+](Cc4ccc5ccccc5c4)c3)ccc2c1

Data returned:
1: > 100 µM; 2: > 100 µM; 3: < 0.0116 µM; 4: 3.11 µM

Go through the items and report each one's TGI.
1. O=C(Nc1ccc2ncnc(Nc3ccc(Oc4cccc(F)c4)c(Cl)c3)c2c1)c1ccc(CN2CCOCC2)cc1
2. CC(N)Cc1ccc(Cl)cc1 (centres undefined)
3. O=c1nc(NC(c2ccccc2)(c2ccccc2)c2ccccc2)ccn1CCCl
4. C=C1C(=O)O[C@H]2[C@H]1CC/C(COC(=O)c1cn(C)c3ccccc13)=C\CC[C@@]1(C)O[C@@H]21
5. Cc1ccc(-c2c(C#N)[n+](=O)c3cc(F)c(F)cc3n2[O-])cc1
6. O=C1NC(=O)C(=Cc2c3ccccc3cc3ccccc23)C(=O)N1

Data returned:
["4.01 µM", "> 100 µM", "41.4 µM", "1.62 µM", "76.9 µM", "> 100 µM"]

Data request: Which TGI is reported for this compound? CCCCC[C@H]1CC=C2C(=O)C=C[C@@H]2CC=CCCCC(=O)O[C@@H](CCCCC)CC=C2C(=O)C=C[C@@H]2CC=CCCCC(=O)O[C@@H](CCCCC)CC=C2C(=O)C=C[C@@H]2CC=CCCCC(=O)O1
Data returned: 0.797 µM

----------
# Tested on: SK-MEL-5 melanoma
# Experiment: NCI tumour cell line growth inhibition, 48 h
I'd be grateful if you could share measured TGI for these entries.
Numbers only, in µM.

Recorded TGI, per entry:
O=C1/C(=C/c2ccc(F)c(F)c2)CN(C(=O)C(Cl)Cl)C/C1=C\c1ccc(F)c(F)c1
0.38
Nc1nc(Nc2ccc(Cl)cc2)sc1C(=O)c1c[nH]c2ccccc12
24.3

Next compound, please.
Data request: Given the compound Cc1ccc(-c2c(C#N)[n+](=O)c3cc(F)c(F)cc3n2[O-])cc1 , what is its reported TGI?
Data returned: 28.1

----------
# Tested on: RXF 393 renal
# Experiment: NCI tumour cell line growth inhibition, 48 h; in the data active means GI50 below about 0.43 µM; inactive means the rest
Returns: one label drawn from active, inactive

CN(C)C[C@H]1CCn2c(c(C3=C(c4cn(C)c5ccccc45)C(=O)NC3=O)c3ccccc32)C1
inactive
Cc1cc(C(=O)Nc2cc(Oc3ccc4nc(NC(=O)C5CC5)cn4n3)ccc2C)n(C)n1
inactive
CCC#CC[C@H](O)C/C=C1/C(=O)C=C[C@@H]1C/C=C\CCCC(=O)OC
inactive
COc1cccc(-n2ncc3c(N/N=C/c4ccc(C)cc4)ncnc32)c1
inactive

Consider the additional compound presented here.
Data request: Kindly provide the recorded test outcome for the following compound: COc1cc(-c2nn(-c3cccc(NC(=O)NCCNS(=O)(=O)c4ccc(Cl)cc4)c3)cc2-c2ccncc2)ccc1Cl
Data returned: active
